System tested: Aβ42 oligomers (Homo sapiens, UniProt P05067)
Construct: commercial Aβ42 monomer powder (from GL biochem); purchased GL biochem
Sequence (P05067 672-713 limits assumed): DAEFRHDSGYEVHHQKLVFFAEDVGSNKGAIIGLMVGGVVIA
Protocol: Fluorescence saturation binding assay with Aβ42 oligomers
Assay context: Table 1, amphiphilic compounds; read-out: Kd, Oligomers
Assay metric: pKd
Remember the convention: pKd equals -log10 of concentration in molar.

Please review the following examples before continuing.
cpd_smiles=COc1cc(OC)cc(-c2ccc(/C=C/c3ccc(O)c(CN4CCN(C)CCN(C)CC4)c3)cc2)c1 system_tested="Aβ42 oligomers (Homo sapiens, UniProt P05067)" test_result=5.68
cpd_smiles=COc1cc(/C=C/c2ccc(-c3ccc(N(C)C)cc3)s2)cc(CN2CCN(C)CCN(C)CC2)c1O system_tested="Aβ42 oligomers (Homo sapiens, UniProt P05067)" test_result=5.98
cpd_smiles=COc1cc(/C=C/c2ccc(-c3ccc(C=O)cc3)s2)cc(CN2CCN(C)CCN(C)CC2)c1O system_tested="Aβ42 oligomers (Homo sapiens, UniProt P05067)" test_result=6.33
cpd_smiles=COc1cc(OC)cc(-c2ccc(/C=C/c3cc(CN4CCN(C)CCN(C)CC4)c(O)c(OC)c3)cc2)c1 system_tested="Aβ42 oligomers (Homo sapiens, UniProt P05067)" test_result=6.92
cpd_smiles=CN1CCN(C)CCN(Cc2cc(-c3ccc(/C=C/c4ccc(N(C)C)cc4)s3)ccc2O)CC1 system_tested="Aβ42 oligomers (Homo sapiens, UniProt P05067)" test_result=5.20

Ask | Can you look up pKd on Aβ42 oligomers (Homo sapiens, UniProt P05067) for COc1cc(-c2ccc(/C=C/c3ccc(N(C)C)cc3)s2)cc(CN2CCN(C)CCN(C)CC2)c1O ?
Reply | 6.49

Ask | Can you look up pKd on Aβ42 oligomers (Homo sapiens, UniProt P05067) for CN1CCN(C)CCN(Cc2cc(/C=C/c3ccc(-c4ccc(C=O)cc4)s3)ccc2O)CC1 ?
Reply | 5.69

Ask | Can you look up pKd on Aβ42 oligomers (Homo sapiens, UniProt P05067) for CN1CCN(C)CCN(Cc2cc(-c3ccc(/C=C/c4ccc(N(C)C)cc4)s3)cc(CN3CCN(C)CCN(C)CC3)c2O)CC1 ?
Reply | 6.17
